The next entries give measured IC50 for ROCK2 (Homo sapiens (Human), UniProt O75116).

[[record]]
compound = "O=c1n(Cc2ccccc2)nnn1-c1ccc(-c2cn[nH]c2)cc1"
test_result = "5 to 50 nM"

[[record]]
compound = "CCc1cc(-n2nc(C)n(Cc3ccccc3F)c2=O)ccc1-c1cn[nH]c1"
test_result = "50 to 250 nM"

[[record]]
compound = "Cc1nn(-c2ccc(-c3cn[nH]c3)cc2)c(=O)n1Cc1c(F)cccc1F"
test_result = "50 to 250 nM"

[[record]]
compound = "CCc1cc(-n2ncn(Cc3cccc(F)c3)c2=O)ccc1-c1cn[nH]c1"
test_result = "5 to 50 nM"

[[record]]
compound = "Cc1nn(-c2ccc(-c3cn[nH]c3)cc2)c(=O)n1Cc1ccccc1"
test_result = "5 to 50 nM"


Which IC50 value belongs to O=c1n(Cc2cccc(F)c2)cnn1-c1ccc(-c2cn[nH]c2)cc1 ?
< 5 nM

Which IC50 value belongs to COc1cccc(Cn2c(CN(C)C)nn(-c3ccc(-c4cn[nH]c4)cc3)c2=O)c1 ?
5 to 50 nM

Which IC50 value belongs to COc1cccc(Cn2cnn(-c3ccc(-c4cn[nH]c4)cc3)c2=O)c1 ?
< 5 nM

Which IC50 value belongs to COc1cc(-c2cn[nH]c2)ccc1-n1cnn(Cc2cc(F)ccc2F)c1=O ?
250 to 2000 nM

Which IC50 value belongs to COc1cc(F)cc(Cn2c(C)nn(-c3ccc(-c4cn[nH]c4)cc3)c2=O)c1 ?
< 5 nM

Which IC50 value belongs to CC(C)(O)c1nn(-c2ccc(-c3cn[nH]c3)cc2)c(=O)n1Cc1ccccc1 ?
5 to 50 nM

Which IC50 value belongs to Cc1nn(C(C)c2ccccc2)c(=O)n1-c1ccc(-c2cn[nH]c2)cc1 (stereo not shown) ?
250 to 2000 nM

Which IC50 value belongs to COc1cccc(Cn2ncn(-c3ccc(-c4cn[nH]c4)cc3)c2=O)c1 ?
50 to 250 nM

====

Here, each record is paired with measured IC50 data.
Molecular target: ROCK2 (Homo sapiens (Human), UniProt O75116)
Sequence (O75116 whole entry, species assumed): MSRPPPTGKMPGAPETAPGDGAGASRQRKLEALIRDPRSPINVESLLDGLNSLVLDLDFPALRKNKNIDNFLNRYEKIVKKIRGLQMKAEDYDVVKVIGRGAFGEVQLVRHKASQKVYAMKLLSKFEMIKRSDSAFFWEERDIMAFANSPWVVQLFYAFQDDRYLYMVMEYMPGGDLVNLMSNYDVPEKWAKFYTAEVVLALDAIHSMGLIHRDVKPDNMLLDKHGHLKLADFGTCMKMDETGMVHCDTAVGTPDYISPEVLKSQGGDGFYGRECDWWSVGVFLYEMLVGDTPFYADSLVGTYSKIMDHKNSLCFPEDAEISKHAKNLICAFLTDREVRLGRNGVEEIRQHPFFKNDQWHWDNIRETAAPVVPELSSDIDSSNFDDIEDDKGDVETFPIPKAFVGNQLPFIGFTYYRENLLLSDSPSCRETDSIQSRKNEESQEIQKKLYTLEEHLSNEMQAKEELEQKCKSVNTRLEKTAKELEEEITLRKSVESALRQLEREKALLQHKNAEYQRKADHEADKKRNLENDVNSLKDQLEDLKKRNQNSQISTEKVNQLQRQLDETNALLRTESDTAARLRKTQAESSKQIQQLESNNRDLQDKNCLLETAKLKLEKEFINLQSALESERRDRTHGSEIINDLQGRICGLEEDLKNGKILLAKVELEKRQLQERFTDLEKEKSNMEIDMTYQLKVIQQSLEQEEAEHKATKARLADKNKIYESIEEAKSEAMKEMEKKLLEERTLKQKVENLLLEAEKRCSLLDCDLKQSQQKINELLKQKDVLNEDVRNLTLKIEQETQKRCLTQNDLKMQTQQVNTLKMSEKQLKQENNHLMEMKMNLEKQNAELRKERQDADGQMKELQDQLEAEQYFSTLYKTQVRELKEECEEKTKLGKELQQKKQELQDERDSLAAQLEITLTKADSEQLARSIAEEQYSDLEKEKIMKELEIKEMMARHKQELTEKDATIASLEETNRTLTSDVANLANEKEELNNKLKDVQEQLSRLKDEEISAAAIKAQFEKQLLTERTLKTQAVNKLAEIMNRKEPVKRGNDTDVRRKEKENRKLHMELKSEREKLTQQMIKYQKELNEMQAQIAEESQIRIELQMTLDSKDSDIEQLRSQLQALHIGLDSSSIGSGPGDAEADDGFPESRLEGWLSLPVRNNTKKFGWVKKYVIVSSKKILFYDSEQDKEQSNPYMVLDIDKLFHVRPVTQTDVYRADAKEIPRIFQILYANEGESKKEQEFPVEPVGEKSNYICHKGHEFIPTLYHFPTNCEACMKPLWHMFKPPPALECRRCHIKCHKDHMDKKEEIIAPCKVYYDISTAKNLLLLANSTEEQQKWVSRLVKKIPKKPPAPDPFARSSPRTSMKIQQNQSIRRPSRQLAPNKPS

[[record]]
smiles_entry = "COc1cc(-n2nnn(Cc3cccc(C#N)c3)c2=O)ccc1-c1cn[nH]c1"
test_result = "250 to 2000 nM"

[[record]]
smiles_entry = "COc1cc(-n2ncn(Cc3cccc(OC(F)F)c3)c2=O)ccc1-c1cn[nH]c1"
test_result = "5 to 50 nM"


We next turn to a different compound, shown below.
Recorded IC50 for CCc1cc(-n2nc(C)n(Cc3cccc(C#N)c3)c2=O)ccc1-c1cn[nH]c1 with ROCK2 (Homo sapiens (Human), UniProt O75116), please?
250 to 2000 nM
